Target: CXCR2 (Homo sapiens)
Construct: endogenous in cells; host or cells: human polymorphonucleate leukocytes (PMNs) isolated from blood of healthy volunteers
Sequence (P25025 1-360): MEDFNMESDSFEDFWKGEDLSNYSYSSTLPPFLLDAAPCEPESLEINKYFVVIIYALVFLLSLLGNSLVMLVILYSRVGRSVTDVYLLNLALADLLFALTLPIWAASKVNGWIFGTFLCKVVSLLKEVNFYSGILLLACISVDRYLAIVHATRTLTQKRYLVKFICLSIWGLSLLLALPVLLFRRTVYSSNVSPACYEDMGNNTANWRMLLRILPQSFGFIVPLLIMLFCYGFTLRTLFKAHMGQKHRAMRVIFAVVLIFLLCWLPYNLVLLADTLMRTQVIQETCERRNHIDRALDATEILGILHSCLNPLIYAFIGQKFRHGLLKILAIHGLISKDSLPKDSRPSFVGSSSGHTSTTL
Assay: GRO-α induced PMN chemotaxis (CXCR2)
Type: cell-based
Conditions: compound c = 10^−8 M
We use 5% as the dividing line for inhibition at 0.01 µM: on or above the line is satisfied, below is not satisfied.

(Q) Confirm if inhibition at 0.01 µM reported for the compound `CCC(=O)c1cccc(CC(=O)O)c1Cl` is 5% or above.
(A) satisfied

(Q) Confirm if inhibition at 0.01 µM reported for the compound `CC(=O)c1ccc(CC(=O)O)n1C` is 5% or above.
(A) satisfied

(Q) Confirm if inhibition at 0.01 µM reported for the compound `CC(=O)c1ccc(CC(N)=O)n1C` is 5% or above.
(A) satisfied

(Q) Confirm if inhibition at 0.01 µM reported for the compound `Cc1cc(CC(C)C)ccc1CC(=O)O` is 5% or above.
(A) not satisfied

(Q) Confirm if inhibition at 0.01 µM reported for the compound `CC(C)C(=O)c1ccc(CC(=O)O)n1C` is 5% or above.
(A) satisfied

(Q) Confirm if inhibition at 0.01 µM reported for the compound `CC(=O)c1ccc(CC(=O)NS(C)(=O)=O)n1C` is 5% or above.
(A) satisfied

(Q) Confirm if inhibition at 0.01 µM reported for the compound `Cc1cc(CC(C)C)ccc1CC(=O)NS(C)(=O)=O` is 5% or above.
(A) not satisfied

(Q) Confirm if inhibition at 0.01 µM reported for the compound `Cc1cc(NS(=O)(=O)C(F)(F)F)ccc1CC(=O)NS(C)(=O)=O` is 5% or above.
(A) satisfied
